Tested on: UO-31 renal
Test: NCI-60 one-dose screen, 48 h (100 = growth as untreated, 0 = no growth, -100 = all killed)
Conditions: 10 µM unless noted
About 83,000 compounds went through this panel and 20% of them were active in at least one assay; those are over-represented in the sample as a whole.
Exercise: state measured growth for each of the molecules provided.
Numbers only, in %.

As a guide, the following entries are already answered.
COc1cc(OC)cc(-c2n[nH]nc2-c2ccc3c(c2)OCO3)c1: 44.9
C=C1C(=O)O[C@H]2[C@H]1CC/C(COC(=O)NCc1cc(OC)cc(OC)c1)=C\CC[C@@]1(C)O[C@@H]21: -58.4
CC(=O)c1cc(C(=O)c2ccc3c(c2)Sc2ccccc2N3)c2cc(C)ccn12: 28.4

Required: growth, one value per molecule below.
1. COc1ccc(C2CC(=O)Nc3c2c(C)nn3-c2nc3ccccc3[nH]2)cc1OC (configuration not stated)
2. CC(=O)Nc1ccc(S(=O)(=O)N2C(=O)CCC2C(=O)Nc2ccccc2)cc1 (configuration not stated)

[52.4, 14.1]

Please state growth for every molecule in the list that follows.
1. Nc1ccccc1C#C/C=C\C#Cc1cccc(O)c1
2. c1ccc([P+](CCC[P+](c2ccccc2)(c2ccccc2)c2ccccc2)(c2ccccc2)c2ccccc2)cc1
3. COc1ccc(-n2cnc3c(sc4ncc(Cl)cc43)c2=O)cc1
4. Cc1nn(-c2ccc(Cl)cc2)c(=O)n1CCOc1ccccc1Cl
5. Nc1c(C(=O)Nc2cccc([N+](=O)[O-])c2)sc2nc3c(cc12)C(O)CCC3 (configuration not stated)
6. O=[N+]([O-])c1cccc(-c2cc(-c3cc(Br)ccc3O)[nH]n2)c1
7. COc1ccc(C2SCC(=O)N2NC(=O)c2ccc(NC(=O)c3ccccn3)cc2)cc1OC (configuration not stated)

[12.4, 82.3, 5.62, 94.9, 69, 20.1, 89.7]
